Origin of measurements: patent US20170369590A1

Kindly supply the reported % binding vs no competitor values for the records listed here.
testedTarget: T1, HER2ECDHis (human, UniProt P04626 23-653, biotinylated in the cross-block ELISA (sites not given))
T1 construct: range 1-653; expressed in HEK-293F; also called soluble HER2; biotinylated HER2ECDHis
test: ELISA; competitor tras

Give recorded % binding vs no competitor. HuMab 091 (antibody, V domains shown, also called TH1014-091; PC1014-091) VH: QVQLQQWGAGLLKPSETLSLTCAVSGGSFSGYYWTWIRQPPGKGLEWIGEIYHSGDTNYNPSLKSRVTISVDTSKNQFSLKLYSVTAADTAVYYCARLYFGSGIYYLDYWGQGTLVTVSS VL: DIQMTQSPSSLSASVGDRVTITCRASQGISSWLVWYQQKPEKAPKSLIYAASSLQSGVPSRFSGSGSGTDFTLTISSLQPEDFATYYCQQYNSFPPTFGQGTKVEIK
99%

Give recorded % binding vs no competitor. HuMab 132 (antibody, V domains shown) VH: QVQLVQSGAEVKKPGASVKVSCKASGYTFTSYGISWVRQAPGQGLEWMGWISAYNGNSNYVQKFQGRVTMTTDTTTSTAYMELRSLTSDDTAVYYCAREYSYDSGTYFYYGMDVWGQGTTVTVSS VL: EIVLTQSPATLSLSPGERATLSCRASQSVSSYLAWYQQKPGQAPRLLIYDASNRATGIPARFSGSGSGTDFTLTISSLEPEDFAVYYCQQRSNWPMYTFGQGTKLEIK
353%

Give recorded % binding vs no competitor. HuMab 098 (antibody, V domains shown, also called TH1014-098; PC1014-098) VH: EVQLLESGGGLVQPGGSLRLSCAASGFTFSNYGMSWVRQAPGKGLEWVSAISGSAYSTYYADSVKGRFTISRDNSKNTLWLQMNSLRAEDTAVYYCAKAHYHGSGSYYTLFDYWGQGTLVTVSS VL: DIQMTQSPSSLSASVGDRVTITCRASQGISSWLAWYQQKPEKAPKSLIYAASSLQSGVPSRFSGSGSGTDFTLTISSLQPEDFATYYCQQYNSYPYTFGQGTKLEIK
107%

Give recorded % binding vs no competitor. HuMab 129 (antibody, V domains shown) VH: QVQLVESGGGVVQPGRSLRLSCAASGFTFSTFAIHWVRQAPGKGLEWVAVISYDGGHKFYADSVKGRFTISRDNSKNTLYLQMNSLRAEDTAMYYCARGLGVWGAFDYWGQGTLVTVSS VL: EIVLTQSPATLSLSPGERATLSCRASQSVSSYLAWYQQKPGQAPRLLIYDASNRATGIPARFSGSGSGTDFTLTISSLEPEDFAVYYCQQRSNWWTFGQGTKVEIK
93%

Give recorded % binding vs no competitor. HuMab 025 (antibody, V domains shown, also called TH1014-025; PC1014-025) VH: QVQLQQWGAGLLKPSETLSLTCAVYGGSFSDYYWNWIRQPPGKGLEWIGEIHHSGSTNYNPSLKSRVTISVDTSKNQFSLKLSSVTAADTAVYYCARGYYDSGVYYFDYWAQGTLVTVSS VL: DIQMTQSPSSLSASVGDRVTITCRASQGISRWLAWYQQKPEKAPKSLIYAASSLRSGVPSRFSGSGSGTDFTLTISSLQPEDFATYYCQQYNSYPITFGQGTRLEIK
98%

Give recorded % binding vs no competitor. HuMab 127 (antibody, V domains shown) VH: EVQLVQSGAEVKKPGESLTISCKGSGYSFSIYWIGWVRQMPGKGLEWMGIIFPGDSDIRYSPSFQGQVTISADKSISTAYLQWSSLKASDTAMYYCARQPGDWSPRHWYFDLWGRGTLVTVSS VL: VIWMTQSPSLLSASTGDRVTISCRMSQGISSYLAWYQQKPGKAPELLIYAASTLQSGVPSRFSGSGSGTDFTLTISYLQSEDFATYYCQQYYSFPLTFGGGTKVEIK
102%
